system: HepG2; experiment: cytotoxicity call (relative viability < 0.9); conditions: 10 µM
About 3,300 (8.5%) of roughly 39,000 compounds were called active. This excerpt belongs to a sample that is enriched for actives.
Tick one outcome: active, inactive

Data request: Give the logged outcome of this assay for the following compound: C[C@H]1CN([C@@H](C)CO)C(=O)c2cc(NC(=O)Nc3ccccc3)ccc2O[C@@H]1CN(C)C(=O)Nc1cccc2ccccc12
Data returned: inactive

Data request: Another compound: C[C@H](CO)N1C[C@H](C)[C@H](CN(C)C(=O)Nc2ccc(F)cc2)OCCCC[C@H](C)Oc2ccc(NC(=O)NC3CCCCC3)cc2C1=O
Data returned: inactive

Data request: Item: C[C@@H]1CCCCO[C@@H](CN(C)Cc2ccc(C(=O)Nc3ccccc3N)cc2)[C@@H](C)CN([C@H](C)CO)C(=O)c2cc(NC(=O)Nc3ccccc3)ccc2O1
Data returned: inactive

Data request: Another compound to check: C[C@@H]1CN([C@H](C)CO)C(=O)Cc2cc(NC(=O)CCN3CCOCC3)ccc2O[C@@H]1CN(C)Cc1ccc(C(=O)O)cc1
Data returned: inactive

Data request: Also need CNC(=O)Nc1ccc(-c2nc(N3C[C@H]4CC[C@@H](C3)O4)c3cnn(C4CCC5(CC4)OCCO5)c3n2)cc1 , thanks.
Data returned: inactive

Data request: And then C[C@@H]1CCCCO[C@@H](CN(C)Cc2ccncc2)[C@@H](C)CN([C@@H](C)CO)C(=O)c2cc(NC(=O)Cc3ccccc3)ccc2O1 , what is it?
Data returned: inactive

Data request: Now consider C[C@@H]1CN([C@@H](C)CO)C(=O)c2cc(NC(=O)Nc3ccc4c(c3)OCO4)ccc2O[C@@H]1CN(C)Cc1ccc(Cl)c(Cl)c1 and answer again.
Data returned: active

Data request: Now give it for O=C(C[C@H]1CC[C@H]2[C@@H](COC[C@@H](O)CN2C(=O)c2ccc3c(c2)OCO3)O1)NC1Cc2ccccc2C1 too.
Data returned: inactive

Data request: Moving on to the next compound: C[C@H](CO)N1C[C@H](C)[C@H](CN(C)Cc2ccc(C(=O)Nc3ccccc3N)cc2)OCCCC[C@H](C)Oc2ccc(N(C)C)cc2C1=O
Data returned: inactive

Data request: Now try CCc1nc2ccc(C(=O)Nc3ccc(OC)c(OC)c3)cn2c1N(CC)Cc1cccc(Br)c1 .
Data returned: inactive

Data request: Subsequent entry: C[C@@H]1CCCCO[C@@H](CN(C)Cc2ccc(C(=O)Nc3ccccc3N)cc2)[C@@H](C)CN([C@H](C)CO)C(=O)c2cc(NC(=O)Cc3ccccc3)ccc2O1
Data returned: inactive

Data request: Moving on to C[C@H]1CCCCO[C@H](CN(C)Cc2ccc(C(=O)Nc3ccccc3N)cc2)[C@@H](C)CN([C@@H](C)CO)C(=O)c2cc(N(C)C)ccc2O1
Data returned: inactive

Data request: Repeat for the following compound: C[C@H](CO)N1C[C@H](C)[C@@H](CN(C)Cc2ccc(Oc3ccccc3)cc2)Oc2c(NS(=O)(=O)c3ccc(F)cc3)cccc2C1=O
Data returned: inactive

Data request: Also C[C@H]1CN([C@@H](C)CO)C(=O)c2cc(NC(=O)Nc3ccc4c(c3)OCO4)ccc2O[C@@H]1CN(C)Cc1ccc(Cl)c(Cl)c1 ?
Data returned: inactive

---

system: HepG2; experiment: cytotoxicity call (relative viability < 0.9); details: 10 µM
Among all 39,000 compounds or so, about 3,300 (8.5%) were called active. Only a selection was taken, and actives are over-represented in it overall.
Select the matching outcome among active, inactive

Data request: Any idea what this test logged for Cc1cc(C)c2c(c1)[C@@H](N(Cc1cc(C(F)(F)F)cc(C(F)(F)F)c1)c1nnn(C)n1)CCCN2C[C@H]1CC[C@H](C(=O)O)CC1 ?
Data returned: active

Data request: What do you have for C[C@@H]1CN([C@H](C)CO)C(=O)Cc2cc(NS(=O)(=O)c3ccc(Cl)cc3)ccc2O[C@H]1CN(C)Cc1ccc(Cl)c(Cl)c1 ?
Data returned: inactive

Data request: Next record, please: C[C@@H]1CCCCO[C@@H](CN(C)Cc2ccc3c(c2)OCO3)[C@@H](C)CN([C@H](C)CO)C(=O)c2cc(NS(=O)(=O)c3ccc(Cl)cc3)ccc2O1
Data returned: active

Data request: Do the same for COc1ccc(CN(C)C[C@H]2Oc3ccc(NC(=O)Nc4cccc5ccccc45)cc3C(=O)N([C@H](C)CO)C[C@H]2C)cc1 please
Data returned: inactive

Data request: Field entry: C[C@H](CO)N1C[C@H](C)[C@H](CN(C)Cc2ccc(Cl)c(Cl)c2)Oc2ccc(NS(=O)(=O)c3ccc(Cl)cc3)cc2CC1=O
Data returned: active

Data request: Then what about the molecule C[C@@H]1CN([C@@H](C)CO)C(=O)c2cc(NC(=O)Nc3ccc(C(F)(F)F)cc3)ccc2O[C@@H]1CN(C)Cc1ccc(C(F)(F)F)cc1 ?
Data returned: active

Data request: Repeat for the following molecule: Cn1nnnc1NCc1ccccc1
Data returned: inactive

Data request: Try the molecule C[C@H](CO)N1C[C@H](C)[C@@H](CN(C)Cc2ccc3c(c2)OCO3)OCCCC[C@H](C)Oc2ccc(NS(=O)(=O)c3ccc(Cl)cc3)cc2C1=O
Data returned: inactive

Data request: One more molecule: C[C@@H]1CN([C@H](C)CO)C(=O)c2cc(NC(=O)Nc3ccc(C(F)(F)F)cc3)ccc2O[C@H]1CN(C)Cc1ccc(C(F)(F)F)cc1
Data returned: active

Data request: Similarly, C[C@@H]1CCCCO[C@H](CN(C)Cc2ccc3c(c2)OCO3)[C@@H](C)CN([C@@H](C)CO)C(=O)c2cc(NS(=O)(=O)c3ccc(Cl)cc3)ccc2O1 ?
Data returned: inactive

Data request: // query: C[C@@H]1CN([C@H](C)CO)C(=O)c2cc(NC(=O)Nc3ccc(C(F)(F)F)cc3)ccc2O[C@@H]1CN(C)Cc1ccc(C(F)(F)F)cc1
Data returned: active

Data request: C[C@@H]1CN([C@@H](C)CO)C(=O)Cc2cc(NS(=O)(=O)c3ccc(Cl)cc3)ccc2O[C@H]1CN(C)Cc1ccc(Cl)c(Cl)c1 , same question.
Data returned: inactive

Data request: Can you handle C[C@H](CO)N1C[C@H](C)[C@@H](CN(C)C(=O)Nc2ccc(C(F)(F)F)cc2)Oc2ccc(NS(=O)(=O)c3ccc(Cl)cc3)cc2C1=O next?
Data returned: inactive

Data request: Another molecule to check: C[C@H]1CN([C@@H](C)CO)C(=O)c2cccc(NC(=O)Nc3ccc4c(c3)OCO4)c2O[C@@H]1CN(C)Cc1ccc(Cl)c(Cl)c1
Data returned: inactive

Data request: Ok, now C[C@@H]1CN([C@@H](C)CO)C(=O)c2cc(NS(=O)(=O)c3ccc(Cl)cc3)ccc2O[C@@H](C)CCCCO[C@H]1CN(C)Cc1ccc2c(c1)OCO2
Data returned: active

Data request: Then this molecule: O=C1C=CC(=O)N1c1ccc(O)cc1
Data returned: active

Data request: Same again, this time with c1ccc(CNc2ccc3c(ccc4c5ccccc5[nH]c34)n2)cc1
Data returned: active

Data request: Likewise for C[C@H]1CCCCO[C@@H](CN(C)Cc2ccc3c(c2)OCO3)[C@@H](C)CN([C@@H](C)CO)C(=O)c2cc(NS(=O)(=O)c3ccc(Cl)cc3)ccc2O1 ?
Data returned: inactive

Data request: Same question, C[C@@H]1CN([C@@H](C)CO)C(=O)c2cc(NS(=O)(=O)c3cn(C)cn3)ccc2O[C@@H](C)CCCCO[C@H]1CN(C)C(=O)CCCN(C)C this time
Data returned: inactive

Data request: Follow-up entry: C[C@@H]1CN([C@@H](C)CO)C(=O)Cc2cc(NS(=O)(=O)c3ccc(Cl)cc3)ccc2O[C@@H]1CN(C)Cc1ccc(Cl)c(Cl)c1
Data returned: active

Data request: Try this molecule too: C[C@H]1CN([C@@H](C)CO)C(=O)Cc2cc(NS(=O)(=O)c3ccc(Cl)cc3)ccc2O[C@@H]1CN(C)Cc1ccc(Cl)c(Cl)c1
Data returned: inactive

Data request: Ok, now Cc1noc(C)c1S(=O)(=O)N(C)C[C@H]1Oc2ccc(NC(=O)Cn3cnnn3)cc2C(=O)N([C@H](C)CO)C[C@H]1C
Data returned: inactive

Data request: Then this molecule: Cc1cccc(S(=O)(=O)N2C[C@H](O)COC[C@@H]3O[C@@H](CC(=O)NCc4ccncn4)CC[C@H]32)c1
Data returned: inactive

Data request: Item: CCOC(=O)c1cc(C(=O)OCC)n(C)n1
Data returned: inactive

Data request: # iterate: C[C@@H]1CCCCO[C@H](CN(C)Cc2ccc3c(c2)OCO3)[C@H](C)CN([C@@H](C)CO)C(=O)c2cc(NS(=O)(=O)c3ccc(Cl)cc3)ccc2O1
Data returned: active

Data request: How about this molecule: C[C@H](CO)N1C[C@H](C)[C@H](CN(C)Cc2ccc3c(c2)OCO3)OCCCC[C@H](C)Oc2ccc(NS(=O)(=O)c3ccc(Cl)cc3)cc2C1=O
Data returned: inactive

Data request: Same thing, different molecule: C[C@H](CO)N1C[C@H](C)[C@H](CN(C)S(=O)(=O)c2cn(C)cn2)Oc2ccc(N(C)C)cc2CC1=O
Data returned: inactive

Data request: Try C[C@H]1CCCCO[C@H](CN(C)Cc2ccc3c(c2)OCO3)[C@@H](C)CN([C@@H](C)CO)C(=O)c2cc(NS(=O)(=O)c3ccc(Cl)cc3)ccc2O1 next.
Data returned: inactive
